target: T1, CD27 expressed on the cell surface (HT1080_CD27 cells) (human, UniProt P26842 20-260); further: test concentration or dose not given here
T1 sequence (looked up): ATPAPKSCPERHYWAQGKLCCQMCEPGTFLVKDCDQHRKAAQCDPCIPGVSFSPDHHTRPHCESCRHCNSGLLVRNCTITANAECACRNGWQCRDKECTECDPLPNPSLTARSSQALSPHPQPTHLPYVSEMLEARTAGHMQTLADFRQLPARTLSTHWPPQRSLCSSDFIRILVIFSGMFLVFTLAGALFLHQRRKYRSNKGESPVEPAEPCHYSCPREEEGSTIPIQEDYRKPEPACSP
test-protocol: cell-based or functional assay
# IL-8 [abs. corr.] values compiled below
recorded-endpoint: IL-8 [abs. corr.] (abs. corr.)

[
  {
    "binder": "P018.S.03.A.H03 (antibody, V domains shown, V regions on human Ig constant parts; also called AB27_61) VH: QSLEESGGDLVKPEGSLTLTCTASGLDFSSSYWICWVRQAPGKGLEWIACIHAGSSGTTHYATWAKGRFTISKTSSTTVTLQMTSLTAADTATYFCARGAVYGGGSYDNFNLWGPGTLVTVSS VL: AYDMTQTPASVEVAVGGTVTIKCQASQSIGTYLSWYQQKPGQPPKLLIYAASTLASGVQPRFKGSGSGTQFTLTISGVQSDDAATYYCQQGYSADNVANSFGGGTEVVVK",
    "recorded-endpoint": "IL-8 [abs. corr.]",
    "result-number": 0.588
  },
  {
    "binder": "P018.S.06.A.E01 (antibody, V domains shown, V regions on human Ig constant parts; also called AB27_104) VH: QSLEESGGRLVTPGTPLTLTCTASGFSLSSYYMTWVRQAPGEGLEWIGTISTAGNTYFASWVKGRFTISRTSTTVDLKMTSPTTEDTATYFCTRDGAGDSNYYRNLWGQGTLVTVSS VL: AIDMTQTPASVEAAVGGTVTIKCQASESIDRFLAWYQQKPGQPPKLLIVDASTLESGVPSRFSGSGSGTEFTLTISDLESDNAATYYCQQGYAISDIDNVFGGGTEVVVK",
    "recorded-endpoint": "IL-8 [abs. corr.]",
    "result-number": 0.525
  },
  {
    "binder": "P018.S.10.A.H02 (antibody, V domains shown, V regions on human Ig constant parts; also called AB27_185) VH: QSLEESGGRLVTPGGSLTLTCTVSGIDLSSYAMGWFRQAPGKGLEYIGIIYSSGSTWFANWVKGRFTISKTSTTVDLKMTSLTTEDTATYFCARYSAADHGDKFKLWGQGTLVTVSS VL: AAVLTQTPSPVSAAVGGTVSISCQSSKNIFDNTRLSWFQQKPGQPPKQLIYGASTLASGVPSRFSGSGSGTQFTLTISGVQSDDAATYYCLGEYSSDSDTSFGGGTEVVVK",
    "recorded-endpoint": "IL-8 [abs. corr.]",
    "result-number": 1.57
  }
]
